Where these numbers come from: patent US20220064331A1

Target: T1, rabbit KLB (+N-ter FLAG) (rabbit)
T1 construct: expressed from KLB cDNA on HEK293T cells and read by FACS
T1 chain: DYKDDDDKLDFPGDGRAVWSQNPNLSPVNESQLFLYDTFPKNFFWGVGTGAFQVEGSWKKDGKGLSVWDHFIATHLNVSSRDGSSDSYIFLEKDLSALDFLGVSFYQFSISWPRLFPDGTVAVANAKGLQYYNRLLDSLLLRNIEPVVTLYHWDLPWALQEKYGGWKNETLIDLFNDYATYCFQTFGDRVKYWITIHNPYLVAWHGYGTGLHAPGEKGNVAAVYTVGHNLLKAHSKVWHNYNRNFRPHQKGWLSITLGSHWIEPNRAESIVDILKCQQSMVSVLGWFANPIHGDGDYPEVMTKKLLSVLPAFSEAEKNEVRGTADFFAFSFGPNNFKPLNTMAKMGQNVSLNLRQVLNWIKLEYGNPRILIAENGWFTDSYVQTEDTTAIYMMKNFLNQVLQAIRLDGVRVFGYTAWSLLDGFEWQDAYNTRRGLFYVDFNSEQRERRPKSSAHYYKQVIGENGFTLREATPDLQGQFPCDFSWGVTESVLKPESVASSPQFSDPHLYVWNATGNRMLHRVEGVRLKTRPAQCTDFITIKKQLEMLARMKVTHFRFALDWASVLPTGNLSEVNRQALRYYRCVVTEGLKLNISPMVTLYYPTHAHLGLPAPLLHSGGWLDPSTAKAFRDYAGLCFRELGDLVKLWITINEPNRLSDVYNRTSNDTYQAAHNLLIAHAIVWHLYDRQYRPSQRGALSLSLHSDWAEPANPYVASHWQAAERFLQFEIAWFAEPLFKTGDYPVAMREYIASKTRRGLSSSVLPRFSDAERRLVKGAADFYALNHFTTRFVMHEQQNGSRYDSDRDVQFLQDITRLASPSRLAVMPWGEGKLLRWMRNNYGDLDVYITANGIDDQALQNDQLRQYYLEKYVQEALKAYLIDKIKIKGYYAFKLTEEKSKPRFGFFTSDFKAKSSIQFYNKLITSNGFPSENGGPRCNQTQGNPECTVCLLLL
Experiment: FACS on transfected HEK293T cells
metric: binding result

binder="6C1 (antibody, V domains shown, murine hybridoma-derived anti-KLB antibody; also called KLBmAb4) VH: QVQLQQSGDELMKPGASVKISCKVTGNTFSSYWIEWVKQRPGHGLEWIGEILPGSDSTKYVEKFKVKATFTADTSSNTAYMQLSSLTSEDSAVYYCARGGYHYPGWLVYWGQGTLVTVSA VL: DIVMTQSQKFMSTSVGDRVSVTCKASQNVDSYVAWYQQKAGQSPKPLIYSASYRFSGVPDRFTGSGSGTEFTLTISNVQSEDLAEYFCQQYNISPYTFGGGTKLEIK" metric="binding result" measurement=binds
binder="8H7 (antibody, V domains shown, murine hybridoma-derived anti-KLB antibody) VH: QVQLQQPGAEIVKPGASVRLSCKASGYSFTSYWIHWVKQRPGQGLEWIGEIDPSVSNSNYNQKFKGKATLTADKSSSTAYMQLSGLTSEDSAVYFCVRLGVMVYGSSPFWFAYWGQGTLVTVSA VL: DIVMTQSQKFMSTSVGDRVSITCKASQFVSDAVAWYQQKPGQSPKLLICSASYRYTGVPDRFTGSGSGTDFTFTISSVRTEDLAVYYCQQHYIVPYTFGGGTTLEIE" metric="binding result" measurement=binds
